Test system: 786-0 renal
METHOD_NOTES: NCI-60 one-dose screen, 48 h (100 = growth as untreated, 0 = no growth, -100 = all killed)
EXPERIMENTAL_PARAMETERS: 10 µM unless noted
The panel holds about 83,000 compounds, 20% with a hit somewhere; the sample as a whole holds those more often.
// reported growth per item
Use % as the unit, but write only the number.

Example cases with answers are listed next.
# SMILES, MEASURED_QUANTITY, UNIT_SPEC, TEST_VALUE
rows = [
    ("CCCOC(=O)N[C@H]1CCc2c(Cl)c(OC)c(OC)c(OC)c2-c2ccc(SC)c(=O)cc21", "growth", "%", 4.31),
    ("C=C(C)[C@@H]1CC[C@]2(C(=O)N[C@@H](Cc3ccccc3)C(=O)OC)CC[C@]3(C)[C@H](CC[C@@H]4[C@@]5(C)CCC(=O)C(C)(C)[C@@H]5CC[C@]43C)[C@@H]12", "growth", "%", 85.8),
]

In the following, a different compound is considered.
Entry under review: CC(C)(C)c1ccc(NS(=O)(=O)c2ccc3nc(NC(=O)c4cnccn4)[nH]c3c2)cc1 . Reported growth?
30

====

Tested on: UO-31 renal
METHOD_NOTES: NCI-60 one-dose screen, 48 h (100 = growth as untreated, 0 = no growth, -100 = all killed)
EXPERIMENTAL_PARAMETERS: 10 µM unless noted
About 83,000 compounds went through this panel and 20% of them were active in at least one assay; those are over-represented in the sample as a whole.
Entries and their growth
Form entry: value (%) — number only.

Study these solved cases before continuing.
# SMILES, UNIT_SPEC, growth
rows = [
    ("COCCCN1CC(O)=C(c2nc(-c3ccc(C)cc3)cs2)C1=N", "%", 80.6),
    ("CCOC(=O)c1cc(C(=O)c2ccc(OC)c(OC)c2)n2ccc(/C=C/c3cc[n+](CC(=O)c4ccc(OC)c(OC)c4)cc3)cc12", "%", 82.7),
    ("O=C(Nc1ccc(Cl)cc1)c1cc(NCc2cc(O)ccc2O)ccc1O", "%", 52.2),
    ("Cc1cnc(C(=O)Nc2nc3ccc(S(=O)(=O)Nc4ccc(C(C)(C)C)cc4)cc3[nH]2)cn1", "%", 40.4),
    ("O=C(O)c1ccc2c(c1)C(=O)N(Cc1ccccc1)C2=O", "%", 83),
]

What value of measured growth is listed for COc1cc2nc(-c3ccc(C(F)(F)F)cc3)cc(OCCN3CCCCC3)c2cc1OC ?
54.3

====

Reported growth values are given for each entry in this list.
Tested on: NCI-H226 lung
METHOD_NOTES: NCI-60 one-dose screen, 48 h (100 = growth as untreated, 0 = no growth, -100 = all killed)
EXPERIMENTAL_PARAMETERS: 10 µM unless noted
About 83,000 compounds went through this panel and 20% of them were active in at least one assay; those are over-represented in the sample as a whole.
Numeric answer only, unit % assumed.

Sample records with growth:
# MOLECULE, growth / %
measured = [
    ("NS(=O)(=O)c1ccc(CCN2C(=O)c3cc(Cl)c(Cl)cc3C2=O)cc1", 106),
    ("NC1=NN=C(N)C1=Cc1cc2ccccc2n2nnnc12", 100),
    ("O=C(c1ccccc1)N1N=C(c2ccc(-n3ccc(C(F)(F)F)n3)c(F)c2)CC1c1ccc[nH]1 (stereo not given)", 108),
    ("N#C/C(=C\\c1ccc(C(F)(F)F)cc1)c1cc2ccccc2[nH]1", 101),
]

Shifting focus to the molecule that follows.
Give the measured growth of N/C(=N\C(N)=N\c1nc2ccccc2s1)c1cnccn1 .
22.5

Origin of measurements: PubChem BioAssay (NCI)
